B1: TPR t1 (parent)
chain: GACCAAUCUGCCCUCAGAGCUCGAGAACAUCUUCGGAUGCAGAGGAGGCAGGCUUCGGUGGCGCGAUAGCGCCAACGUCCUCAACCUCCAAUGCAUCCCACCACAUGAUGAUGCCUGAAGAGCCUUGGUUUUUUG

# Variants of: B1
# experiment_summary: polymerase ribozyme fitness, log enrichment relative to wild type (log ratio); higher = more active; in vitro selection for triplet polymerase activity
# thresholds on polymerase ribozyme fitness (log ratio) define classes: I: < -4; II: ≥ -4 and < -2; III: ≥ -2

1) G60C A111U G128U U133A
I
2) G39A G63C C72A
I
3) G44U C94A
II
4) C3U A91U G93C G113C G135U
II
5) A46U U96C C115U
II
6) G47A G52A G61C G120A
I
7) C72A A95G C97G C104A A118U G127C
I
8) U9C A103C C104A
II
9) A27C A74C
II
10) A29G C31G G63A A100U A121C
I
11) C8G G10U G69U A95U C102A C114G U129G
II
12) G113C C124U G127C
II
13) C20A A46U
I
14) C15G A41G C104U
II
15) G48A C72U C94U G127A
II
16) A6U G47A C70U C94U
III
17) A43G C124A
III
18) C73G A84U U112C
III
19) G48U C73U
III
20) G45U U59G A83G C115U
I
21) C49A A83C A84U
III
22) C4U C76G C123A
III
23) A6U C11A C13G G47A G48A A74C A118G
I
24) A5C C98U U112A G128C
I
25) G44C C49A C101G U112G U131G
I
26) C31U G63A
I
27) A50U C85A
II
28) U32A A46C C64U U78G
I
29) G63A C114U
II
30) C8G C11A U96G C97G U131G
I
31) C49U G51A
III
32) C8U C49U C56U C70U C98A
I
33) U9C C12G G60C U78C
III
34) G10U C12U C31U C72U C85A G122A
I
35) C34U U87A
I
36) G69A C86G A121U
III
37) A2G G39U G57C A74U U112A C114G
II
38) A6U C115U A119U U130G
III
39) U9C U78C
III
40) A95C C101U U106A
III
41) C4A U112A
III
42) G45A C76U C86G
II
43) C40A G44C C72G G127A
I
44) C11U U116G G122A C124U
III
45) G42A G117U
II
46) G25U G69U C102U A121U
I
47) G93C
III
48) G42U U106A
III
49) U14A G45A G47U G52A C86A
II
50) A27U A37G G48A C72G A83U U130A
I
51) G36U U106A G127C
III
52) C97U G110A
III
53) G51A G60A A84G G120U
II
54) C3U A16C G17A U54C U78C A90C
II
55) A37U C99U
II
56) A26G G45C G48U C88U
I
57) C72A U112C G127C
III
58) U109G A118G
I
59) G51A C56U A84G A95G U96A
I
60) G71A C82A
III
61) G52U U129G
II
62) A24G U54A A68U G71A U112A
I
63) C70U G122A U126A
II
64) C15U C101U
III
65) A27C C28A A103U A105U U106G A111U G117U C123U
I
66) A18U U87G G120A
III
67) C8G C79G C80A
I
68) G60A A83C
III
69) A27G U38C C40G C49G G63U A95G U132A
II
70) U9G G10A U14G A46G G48A A66G
II
71) A43U C49U U59C C70U C115U
I
72) C115G U126C U132A
I
73) C4G U9C C70U C89U U96A
II
74) G48U A74U
III
75) U38C G71A
III

The reported numbers originate from the RNAGym collection of RNA variant scans (doi:10.1073/pnas.2313332121).
